- Target Desc: ASH1L PHD finger D2603A (human, UniProt Q9NR48 2579-2629, D2603A)
pKd: −log10 of the molar value. Ends that are not written are not given here. Me3 = trimethyl on lysine side chain
Reported Property: pKd

> print(dat)
                                     binder  obs.value
1  ARTK(Me3)QTARKSTG [histone H3K4me3 peptide (aa 1-12 of H3)]       5.70
